assay: Rat liver microsome stability assay; type: in vitro ADME; details: rat liver microsomes (male Sprague-Dawley), 0.5 μM test compound, 0.25 mg/mL microsomal protein, pH 7.4, 37° C.; read-out: Stability in rat liver microsomes (t1/2 in minutes)

- molecule: "Cn1cc(-c2cc(S(N)(=O)=O)cnc2OCC2CC2)c2cc[nH]c2c1=O"
  half-life at 0.5 μM / min: 78
- molecule: "Cn1cc(-c2cc(S(C)(=O)=O)ccc2Oc2ccc(Cl)c(F)c2)c2cc[nH]c2c1=O"
  half-life at 0.5 μM / min: 55
- molecule: "Cn1cc(-c2cc(NS(C)(=O)=O)ccc2Oc2ccc(F)c(F)c2)c2cc[nH]c2c1=O"
  half-life at 0.5 μM / min: 32
- molecule: "CN(C)S(=O)(=O)c1cnc(Oc2ccc(F)cc2F)c(-c2cn(C)c(=O)c3[nH]ccc23)c1"
  half-life at 0.5 μM / min: 20
